Target: human PHD2 (Homo sapiens (Human), UniProt Q9GZT9)
Sequence (Q9GZT9 whole entry): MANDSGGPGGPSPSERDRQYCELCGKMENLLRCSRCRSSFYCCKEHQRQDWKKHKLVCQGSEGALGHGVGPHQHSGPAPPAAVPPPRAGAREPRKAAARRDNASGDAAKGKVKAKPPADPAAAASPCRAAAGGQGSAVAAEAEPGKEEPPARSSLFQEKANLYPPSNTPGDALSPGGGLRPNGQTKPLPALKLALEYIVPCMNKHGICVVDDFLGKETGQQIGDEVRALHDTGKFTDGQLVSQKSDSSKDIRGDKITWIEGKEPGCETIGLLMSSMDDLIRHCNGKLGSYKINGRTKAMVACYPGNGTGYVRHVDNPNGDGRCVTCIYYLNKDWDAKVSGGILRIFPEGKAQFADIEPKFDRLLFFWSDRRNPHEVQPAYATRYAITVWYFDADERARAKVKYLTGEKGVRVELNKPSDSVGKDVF
Assay: Test 1: human PHD2 inhibitory activity, [14C]-2-oxoglutarate to [14C]-succinic acid radiometric assay with HIF-1α peptide
Type: biochemical
Conditions: test compound's concentration 1 μM; Test 1, [14C]-2-oxoglutarate radiometric assay; read-out: Percent inhibition (% at 1 μM)
Give measured inhibition at 1 µM for each item. Keep answers brief.
Give just the number in %; leave the unit off.

Challenge: Given the entry O=C(O)CNC(=O)C1=C(O)CCN(Cc2cnc(-c3ccccc3)nc2)C1=O , report its measured inhibition at 1 µM.
Response given: 89

Challenge: Given the entry O=C(O)CNC(=O)C1=C(O)[C@@H]2CCCC[C@@H]2N(Cc2ccc(-c3ccccc3)cc2)C1=O , report its measured inhibition at 1 µM.
Response given: 58

Challenge: Given the entry Cc1cc(CN2C(=O)C(C(=O)NCC(=O)O)=C(O)CC2(C)C)ccc1F , report its measured inhibition at 1 µM.
Response given: 44

Challenge: Given the entry O=C(O)CNC(=O)C1=C(O)CCN(Cc2ccc(OC3CCCC3)cc2)C1=O , report its measured inhibition at 1 µM.
Response given: 91

Challenge: Given the entry O=C(O)CNC(=O)C1=C(O)CCN(Cc2ccc(C(F)(F)F)c(F)c2)C1=O , report its measured inhibition at 1 µM.
Response given: 79

Challenge: Given the entry O=C(O)CNC(=O)C1=C(O)CCN(Cc2ccc(-c3ccc(C(F)(F)F)nc3)cc2)C1=O , report its measured inhibition at 1 µM.
Response given: 88

Challenge: Given the entry O=C(O)CNC(=O)C1=C(O)CCN(Cc2cc(C(F)(F)F)cc(C(F)(F)F)c2)C1=O , report its measured inhibition at 1 µM.
Response given: 41

Challenge: Given the entry CC(=O)c1ccc(-c2ccc(CN3CCC(O)=C(C(=O)NCC(=O)O)C3=O)cc2)cc1 , report its measured inhibition at 1 µM.
Response given: 102

Challenge: Given the entry O=C(O)CNC(=O)C1=C(O)CCN(Cc2ccc(OC(F)(F)C(F)F)cc2)C1=O , report its measured inhibition at 1 µM.
Response given: 91

Challenge: Given the entry O=C(O)CNC(=O)C1=C(O)CCN(Cc2ccc(OCC(F)(F)F)cc2)C1=O , report its measured inhibition at 1 µM.
Response given: 75

Challenge: Given the entry COc1ccc(-c2ccc(CN3CCC(O)=C(C(=O)NCC(=O)O)C3=O)cc2)cn1 , report its measured inhibition at 1 µM.
Response given: 92

Challenge: Given the entry O=C(O)CNC(=O)C1=C(O)CCN(Cc2ccc(Oc3ccc(C(F)(F)F)cn3)cc2)C1=O , report its measured inhibition at 1 µM.
Response given: 84

Challenge: Given the entry Cc1ccc(CN2C(=O)C(C(=O)NCC(=O)O)=C(O)CC2(C)C)cc1F , report its measured inhibition at 1 µM.
Response given: 59

Challenge: Given the entry CC1(C)CC(O)=C(C(=O)NCC(=O)O)C(=O)N1Cc1ccc(OCC2CC2)cc1 , report its measured inhibition at 1 µM.
Response given: 70

Challenge: Given the entry CC1CC(O)=C(C(=O)NCC(=O)O)C(=O)N1Cc1ccc(Cl)cc1 (stereo not shown) , report its measured inhibition at 1 µM.
Response given: 81

Challenge: Given the entry O=C(O)CNC(=O)C1=C(O)CC(CCc2ccccc2)N(Cc2ccc(-c3ccccc3)cc2)C1=O (stereo not shown) , report its measured inhibition at 1 µM.
Response given: 40

Challenge: Given the entry O=C(O)CNC(=O)C1=C(O)CCN(Cc2ccc(Oc3cccc(Cl)c3)nc2)C1=O , report its measured inhibition at 1 µM.
Response given: 107

Challenge: Given the entry O=C(O)CNC(=O)C1=C(O)CC2(CCOCC2)N(Cc2ccc(-c3ccc(C(F)(F)F)cc3)cc2)C1=O , report its measured inhibition at 1 µM.
Response given: 78

Challenge: Given the entry O=C(O)CNC(=O)C1=C(O)CCN(c2cccc(Oc3ccccc3)c2)C1=O , report its measured inhibition at 1 µM.
Response given: 76

Challenge: Given the entry CC1CC(O)=C(C(=O)NCC(=O)O)C(=O)N1Cc1ccc(Br)cc1 (stereo not shown) , report its measured inhibition at 1 µM.
Response given: 78

Challenge: Given the entry O=C(O)CNC(=O)C1=C(O)CC2(CCOCC2)N(Cc2ccc(C(F)(F)F)cc2)C1=O , report its measured inhibition at 1 µM.
Response given: 66

Challenge: Given the entry CC(C)Oc1ccc(CN2C(=O)C(C(=O)NCC(=O)O)=C(O)CC2(C)C)cc1 , report its measured inhibition at 1 µM.
Response given: 71

Challenge: Given the entry O=C(O)CNC(=O)C1=C(O)CCN(CCc2ccc(C(F)(F)F)cc2)C1=O , report its measured inhibition at 1 µM.
Response given: 74

Challenge: Given the entry O=C(O)CNC(=O)C1=C(O)CC(Cc2ccccc2)N(Cc2ccc(C(F)(F)F)cc2)C1=O (stereo not shown) , report its measured inhibition at 1 µM.
Response given: 73

Challenge: Given the entry O=C(O)CNC(=O)C1=C(O)CCN(Cc2ccc(OCc3ccc(Cl)cc3)cc2)C1=O , report its measured inhibition at 1 µM.
Response given: 100

Challenge: Given the entry Cn1nc(CN2C(=O)C(C(=O)NCC(=O)O)=C(O)CC2(C)C)cc1-c1ccccc1 , report its measured inhibition at 1 µM.
Response given: 30

Challenge: Given the entry O=C(O)CNC(=O)C1=C(O)CC(c2ccccc2)N(Cc2ccc(-c3ccccc3)cc2)C1=O (stereo not shown) , report its measured inhibition at 1 µM.
Response given: 77

Challenge: Given the entry CC1(C)CC(O)=C(C(=O)NCC(=O)O)C(=O)N1Cc1cnc(-c2ccccc2)s1 , report its measured inhibition at 1 µM.
Response given: 82

Challenge: Given the entry Cc1ccc(Oc2ccc(CN3CC4(CCC4)C(O)=C(C(=O)NCC(=O)O)C3=O)cn2)cc1 , report its measured inhibition at 1 µM.
Response given: 93

Challenge: Given the entry CC1(C)CN(Cc2ccc(-c3ccccc3)cc2)C(=O)C(C(=O)NCC(=O)O)=C1O , report its measured inhibition at 1 µM.
Response given: 75

Challenge: Given the entry O=C(O)CNC(=O)C1=C(O)CCN(Cc2ccc(Oc3ccccc3F)nc2)C1=O , report its measured inhibition at 1 µM.
Response given: 92

Challenge: Given the entry O=C(O)CNC(=O)C1=C(O)C2(CCC2)CN(Cc2ccc(OCC3CC3)cc2)C1=O , report its measured inhibition at 1 µM.
Response given: 80

Challenge: Given the entry O=C(O)CNC(=O)C1=C(O)CCN(Cc2ccc(-c3ccccc3)c(F)c2)C1=O , report its measured inhibition at 1 µM.
Response given: 98

Challenge: Given the entry Cc1ccc(Oc2ccc(CN3C(=O)C(C(=O)NCC(=O)O)=C(O)CC34CCC4)cn2)cc1 , report its measured inhibition at 1 µM.
Response given: 109
